Form field: pIC50 (one value per entry).
target: Neuropilin-1 (Homo sapiens) (UniProt O14786); assay: NRP-1 b1b2 CendR peptide binding inhibitors, dose response, biochemical, FP and AlphaScreen panel (AID 651650); settings: NRP-1 b1b2 / RPARPAR peptide binding, FP or AlphaScreen; AlphaScreen, run 1; individual panel run IC50
Sequence (O14786 whole entry, looked up): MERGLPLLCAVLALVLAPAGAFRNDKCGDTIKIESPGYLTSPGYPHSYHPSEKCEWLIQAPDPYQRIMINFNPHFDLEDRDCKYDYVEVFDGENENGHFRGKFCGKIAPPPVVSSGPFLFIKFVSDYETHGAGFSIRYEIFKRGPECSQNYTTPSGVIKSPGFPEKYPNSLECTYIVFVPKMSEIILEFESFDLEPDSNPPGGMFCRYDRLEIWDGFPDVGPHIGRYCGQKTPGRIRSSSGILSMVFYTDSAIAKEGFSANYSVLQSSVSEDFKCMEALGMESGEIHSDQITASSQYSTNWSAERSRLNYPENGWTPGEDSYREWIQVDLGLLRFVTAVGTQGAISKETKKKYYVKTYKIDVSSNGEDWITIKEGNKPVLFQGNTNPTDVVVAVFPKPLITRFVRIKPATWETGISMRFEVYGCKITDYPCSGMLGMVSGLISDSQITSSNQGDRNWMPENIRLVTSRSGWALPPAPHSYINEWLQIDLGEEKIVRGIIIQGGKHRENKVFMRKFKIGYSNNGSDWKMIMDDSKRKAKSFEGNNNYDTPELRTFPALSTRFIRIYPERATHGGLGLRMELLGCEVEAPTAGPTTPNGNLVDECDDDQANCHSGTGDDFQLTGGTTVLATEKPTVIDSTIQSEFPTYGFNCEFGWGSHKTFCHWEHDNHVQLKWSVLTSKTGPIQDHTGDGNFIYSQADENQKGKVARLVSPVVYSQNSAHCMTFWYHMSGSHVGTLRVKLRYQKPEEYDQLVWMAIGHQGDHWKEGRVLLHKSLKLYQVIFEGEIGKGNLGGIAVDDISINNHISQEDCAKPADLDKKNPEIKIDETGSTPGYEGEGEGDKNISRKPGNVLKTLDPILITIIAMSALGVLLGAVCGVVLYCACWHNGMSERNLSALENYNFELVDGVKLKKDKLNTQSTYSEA
pIC50: −log10 of the molar value.

[
  {
    "compound": "CCOc1ccc(-n2c(Cc3cc(=O)[nH]c(=O)[nH]3)nnc2SC(C)C)cc1",
    "result": "< 4.00"
  },
  {
    "compound": "COc1cccc(OCC(=O)NNC(=S)Nc2ccc(Cl)cc2Cl)c1",
    "result": "< 4.00"
  },
  {
    "compound": "Cn1c(=O)c2c(nc(OCc3cccnc3)n2Cc2ccccc2)n(C)c1=O",
    "result": 4.39
  },
  {
    "compound": "Fc1cc(Cl)ccc1Nc1nc(NCc2ccccc2)nc2ccsc12",
    "result": "< 4.00"
  },
  {
    "compound": "CCCCN(c1ccccc1)S(=O)(=O)c1ccc2c(c1)CCN2C(=O)CCC(=O)O",
    "result": "< 4.00"
  }
]

Query: Assign pIC50 to the following record: CCCCOc1ccc(S(=O)(=O)N2CCN(C)CC2)cc1
Reply: 4.12

Query: Assign pIC50 to the following record: COc1ccc(Cn2c(C3CC3)nc3ccc(NC(=O)c4cccnc4)cc3c2=O)cc1
Reply: 4.50

Query: Assign pIC50 to the following record: COc1cccc(-c2ccc3c(c2)N(Cc2ccccc2OC)C(=O)C(C)S3)c1 (stereo unspecified)
Reply: < 4.00

Query: Assign pIC50 to the following record: NC1=NC[C@@H](Cc2ccc(O)cc2)N1CCCCC1CCCCC1
Reply: < 4.00

Query: Assign pIC50 to the following record: Cc1cc(C)n(-c2nnc3n2N=C(c2c[nH]c4ccccc24)CS3)n1
Reply: < 4.00

Query: Assign pIC50 to the following record: NNc1ncnc2c1cnn2-c1ccccc1
Reply: < 4.00

* * *

target: Neuropilin-1 (Homo sapiens) (UniProt O14786); assay: NRP-1 b1b2 CendR peptide binding inhibitors, dose response, biochemical, FP and AlphaScreen panel (AID 651650); conditions: NRP-1 b1b2 / RPARPAR peptide binding, FP or AlphaScreen; AlphaScreen, run 1; individual panel run IC50
Form field: IC50 (one value per entry).

[
  {
    "compound": "Cc1cc(N/C(=N/S(=O)(=O)c2cc(F)ccc2F)c2ccccc2)n(-c2ccccc2)n1",
    "result": "> 100 µM"
  },
  {
    "compound": "O=C(NCc1ccccc1)c1cccc(S(=O)(=O)N2CCCCC2)c1",
    "result": "39.8 µM"
  },
  {
    "compound": "COC(=O)c1cccc(NC(=S)NCCC2=CCCCC2)c1",
    "result": "> 100 µM"
  },
  {
    "compound": "Nc1ncnc2[nH]c(=S)[nH]c12",
    "result": "> 100 µM"
  },
  {
    "compound": "CCOC(=O)C1CCN(Cc2ccc3ccccc3c2)CC1",
    "result": "> 100 µM"
  },
  {
    "compound": "Cc1ccc(C(=O)N2CCN(C34CC5CC(CC(C5)C3)C4)CC2)o1",
    "result": "75.4 µM"
  },
  {
    "compound": "CCn1cc(C(=O)N2CCN(C(=O)c3ccco3)CC2)c2cc(OC)c(OC)cc2c1=O",
    "result": "25.4 µM"
  },
  {
    "compound": "Cc1ccccc1NC(=S)NC(=O)COc1ccccc1C",
    "result": "6.67 µM"
  }
]

Query: Assign IC50 to the following record: COc1ccc(OCC(=O)O/N=C(\N)Cc2ccc(Cl)cc2Cl)cc1
Reply: 55.3 µM

Query: Assign IC50 to the following record: COc1cc2oc(=O)ccc2cc1[C@@H](O)[C@@H]1OC(C)(C)OC1(C)C
Reply: > 100 µM

Query: Assign IC50 to the following record: COC(=O)[C@@]1(Cc2ccc(OC)cc2)[C@H]2c3cc(C(=O)N4CCCC4)n(CCN4CCOCC4)c3C[C@H]2CN1C(=O)c1ccccc1
Reply: > 100 µM

Query: Assign IC50 to the following record: CC(C)(C)n1cnc2cc(NC(=O)c3ccccc3)ccc21
Reply: 17 µM

Query: Assign IC50 to the following record: Cc1ccc(S(=O)(=O)NCC(=O)N(c2ccccc2)C(C(=O)NCc2ccccc2)c2ccco2)cc1 (configuration not stated)
Reply: > 100 µM
